ASSAY INFO: Cytotoxicity (IC50) on HUVEC
Assay type: cell-based, human
PROTOCOL CONDITIONS: human, human umbilical vascular endothelial cells (HUVEC); normal cells; Table 1, value in parentheses; read-out: Cytotoxicity, IC50 HUVEC

>  <COMPOUND>
CCCC=C1OC(=O)c2ccccc21 [BP, n-Butylidenephthalide]

>  <IC50>
> 532 µM

$$$$

---

ASSAY INFO: Cytotoxicity (IC50) on HUVEC
Type: cell-based, human
PROTOCOL CONDITIONS: human
Procedure: Human umbilical vascular endothelial cells (HUVECs) were purchased from Cascade Biologics, Inc. (USA). […] The absorbance was measured at 450 nm, using a microplate reader with a reference wavelength at 600 nm or over. […] The effects on cell viability after the treatments with different concentrations of the Angelicae sinensis extracts or the active components purified therefrom were evaluated by modified MTT assay in triplicate. […] The absorbance of untreated cells was considered as 100%. […]

>  <COMPOUND>
CC(=O)O[C@H]1C(=O)[C@@]2(C)[C@H]([C@H](OC(=O)c3ccccc3)[C@]3(O)C[C@H](OC(=O)[C@H](O)[C@@H](NC(=O)c4ccccc4)c4ccccc4)C(C)=C1C3(C)C)[C@]1(OC(C)=O)CO[C@@H]1C[C@@H]2O [Taxol, reference compound]

>  <IC50>
< 0.1 µg/mL

$$$$
